- Tested on: Klebsiella oxytoca
- TEST_NAME: Antimicrobial activity against extended spectrum beta-lactamase-expressing Klebsiella oxytoca assessed as percent susceptible isolates by CLSI method
- Assay type: functional
OBSERVATION_TYPE: Activity (%)
One number for each entry, in %.

Answered cases to consult:
C[C@@H](O)[C@H]1C(=O)N2C(C(=O)O)=C(SCCNC=N)C[C@H]12 [IMIPENEM ANHYDROUS]	100
CC(C)(O/N=C(\C(=O)N[C@@H]1C(=O)N2C(C(=O)[O-])=C(C[n+]3ccccc3)CS[C@H]12)c1csc(N)n1)C(=O)O [CEFTAZIDIME]	27

In the following, a different molecule is considered.
# input Name the reported Activity value associated with the molecule `C[C@@H](O)[C@H]1C(=O)N2C(C(=O)O)=C(S[C@@H]3CN[C@H](C(=O)Nc4cccc(C(=O)O)c4)C3)[C@H](C)[C@H]12`
# output 100

====

- System: Klebsiella oxytoca
- TEST_NAME: Antimicrobial activity against extended spectrum beta-lactamase-expressing Klebsiella oxytoca assessed as percent susceptible isolates by CLSI method
- Type: functional
Could you label it t if measured Activity is 40% or higher, and f otherwise?

CO[C@@]1(NC(=O)Cc2cccs2)C(=O)N2C(C(=O)O)=C(COC(N)=O)CS[C@@H]21	t

# input Exam item: decide whether the reported Activity for `CO/N=C(\C(=O)N[C@@H]1C(=O)N2C(C(=O)O)=C(COC(C)=O)CS[C@H]12)c1csc(N)n1` is at least 40%.
# output f

# input Is Activity at least 40%? Consider `CO/N=C(\C(=O)N[C@@H]1C(=O)N2C(C(=O)O)=C(CSc3nc(=O)c(O)nn3C)CS[C@H]12)c1csc(N)n1`
# output f

# input Hi, just wondering whether `NCC[C@H](O)C(=O)N[C@@H]1C[C@H](N)[C@@H](O[C@H]2O[C@H](CN)[C@@H](O)[C@H](O)[C@H]2O)[C@H](O)[C@H]1O[C@H]1O[C@H](CO)[C@@H](O)[C@H](N)[C@H]1O` shows Activity of 40% or higher.
# output t

====

- System: Klebsiella pneumoniae
- TEST_NAME: Antimicrobial activity against extended spectrum beta-lactamase-expressing Klebsiella pneumoniae assessed as percent susceptible isolates by CLSI method
- Type: functional
Label 0 if Activity falls below 40%; label 1 in every other case.

C[C@@H](O)[C@H]1C(=O)N2C(C(=O)O)=C(S[C@@H]3CN[C@H](C(=O)Nc4cccc(C(=O)O)c4)C3)[C@H](C)[C@H]12	1
NCC[C@H](O)C(=O)N[C@@H]1C[C@H](N)[C@@H](O[C@H]2O[C@H](CN)[C@@H](O)[C@H](O)[C@H]2O)[C@H](O)[C@H]1O[C@H]1O[C@H](CO)[C@@H](O)[C@H](N)[C@H]1O [AMIKACIN]	1
CO/N=C(\C(=O)N[C@@H]1C(=O)N2C(C(=O)O)=C(COC(C)=O)CS[C@H]12)c1csc(N)n1 [CEFOTAXIME]	0
CO[C@@]1(NC(=O)Cc2cccs2)C(=O)N2C(C(=O)O)=C(COC(N)=O)CS[C@@H]21 [CEFOXITIN]	1
CC(C)(O/N=C(\C(=O)N[C@@H]1C(=O)N2C(C(=O)[O-])=C(C[n+]3ccccc3)CS[C@H]12)c1csc(N)n1)C(=O)O [CEFTAZIDIME]	0

# input Assess whether reported Activity for C[C@@H](O)[C@H]1C(=O)N2C(C(=O)O)=C(SCCNC=N)C[C@H]12 [IMIPENEM ANHYDROUS] sits at 40% or higher.
# output 1

# input In plain terms: is recorded Activity at least 40% for CO/N=C(\C(=O)N[C@@H]1C(=O)N2C(C(=O)O)=C(CSc3nc(=O)c(O)nn3C)CS[C@H]12)c1csc(N)n1 [CEFTRIAXONE] ?
# output 0

# input For this compound, is measured Activity 40% or higher? C[C@H]1COc2c(N3CCN(C)CC3)c(F)cc3c(=O)c(C(=O)O)cn1c23.C[C@H]1COc2c(N3CCN(C)CC3)c(F)cc3c(=O)c(C(=O)O)cn1c23.O [LEVOFLOXACIN]
# output 1
